Reported values of TGI for individual entries
System: MOLT-4 leukemia
measurement-protocol: NCI tumour cell line growth inhibition, 48 h
Your answer should be a plain number; it is taken to be in µM.

// known answers, use as guide
COC1(CC[C@@H](C)COC2OC(CO)C(O)C(O)C2O)OC2C[C@H]3[C@@H]4CC[C@H]5C[C@@H](OC6OC(CO)C(OC7OC(CO)C(O)C(O)C7O)C(O)C6OC6OC(C)C(O)C(O)C6O)[C@H](O)C[C@]5(C)[C@H]4CC[C@]3(C)C2[C@@H]1C (stereo partly drawn) ... 8.14
O=C1C(=O)c2c(nc3ccc(C(F)(F)F)cn23)-c2ccccc21 ... 0.602
O=S(=O)(Nc1nc2ccccc2nc1N1CCCCCC1)c1ccccc1 ... 44.2

Please examine the following record next.
Task: Looking for the measured TGI of `COc1ccc2c(c1)C(=O)c1c-2c(OCCCN(C)C)nc2cc(Br)ccc12` , can you help?
Result: 18.7

###

Reported values of TGI for individual entries
Tested on: HCC-2998 colon
measurement-protocol: NCI tumour cell line growth inhibition, 48 h
Your answer should be a plain number; it is taken to be in µM.

COC1(CC[C@@H](C)COC2OC(CO)C(O)C(O)C2O)OC2C[C@H]3[C@@H]4CC[C@H]5C[C@@H](OC6OC(CO)C(OC7OC(CO)C(O)C(O)C7O)C(O)C6OC6OC(C)C(O)C(O)C6O)[C@H](O)C[C@]5(C)[C@H]4CC[C@]3(C)C2[C@@H]1C (stereo partly drawn) ... 3.24

Task: Looking for the measured TGI of `COc1cc2c(/C=C3\C(=O)Nc4ccccc43)c[nH]c2cc1C` , can you help?
Result: 0.167

###

System: M19-MEL melanoma
measurement-protocol: NCI tumour cell line growth inhibition, 48 h
measure: TGI

CC(=O)C(=Cc1cn(C)c(=O)n(C)c1=O)C(C)=O ... 273 µM
CN1CCCC2[C@@H]3CCC4c5nonc5CC[C@]4(C)C3CC[C@@]21C (stereo partly specified) ... > 100 µM
Cc1cccc(C)c1NC(=O)C(=O)Cc1nc2ccccc2s1 ... > 100 µM
C[s+]1c2ccccc2c2ccccc21 ... > 100 µM
O=c1c2cccnc2ncn1CCCN1CCCCC1 ... > 100 µM
O=C(CC1=Nc2nnc(CCCCCCCc3nnc4n3C(=O)C(CC(=O)c3ccc5ccccc5c3)=N4)n2C1=O)c1ccc2ccccc2c1 ... > 100 µM
Clc1ccc2c(NCCCCCCNc3ccnc4cc(Cl)ccc34)ccnc2c1 ... 8.83 µM
c1ccc2c(c1)[nH]c1c2nc2ccccn21 ... > 100 µM
[N-]=[N+]=CC(=O)CCC(N)C(=O)O (stereo unspecified) ... > 138 µM
CC1=C(CO)C(=O)OC(C(C)C2CCC3C4CC5OC56C(O)C(N5CC5)=CC(=O)C6(C)C4CCC23C)C1 (stereo unspecified) ... 23.5 µM

Please examine the following record next.
Task: Write down the reported TGI of CCOc1ccc2nc(NC(=O)C(=O)C(C(=O)c3ccccc3F)C3OC(=O)c4ccccc43)sc2c1 (stereo unspecified) , test system: M19-MEL melanoma.
Result: 27 µM

###

Reported values of TGI for individual entries
Test system: NCI-H226 lung
measurement-protocol: NCI tumour cell line growth inhibition, 48 h
Your answer should be a plain number; it is taken to be in µM.

Clc1ccc2c(NCCCCCCNc3ccnc4cc(Cl)ccc34)ccnc2c1 ... 25.3
COP(=O)(OC)OCN(C)CC/C=C(\C)CC/C=C(\C)CCC=C(C)C ... 34.6
N#Cc1ccccc1NC(=O)C(=O)C(C(=O)c1ccccc1F)C1OC(=O)c2ccccc21 (stereo not given) ... 64.4

Please examine the following record next.
Task: Looking for the measured TGI of `O=C1[C@@H]2[C@@H](CN3CN(c4ccccc4)N=C(c4ccccc4)[C@@]23c2ccccc2)C(=O)N1c1ccccc1` , can you help?
Result: 8.87

###

Reported values of TGI for individual entries
Test system: SR leukemia
measurement-protocol: NCI tumour cell line growth inhibition, 48 h

// known answers, use as guide
O=C(Nc1sc2c(c1C(=O)O)CCCC2)c1ccco1 ... > 50 µM
N#Cc1c(NC(=S)Nc2ccc(Cl)cc2)sc2c1CCN(N1CCc3c(sc(NC(=S)Nc4ccc(Cl)cc4)c3C#N)C1)C2 ... > 100 µM
CN(CCCCCl)P(=O)(OCc1ccc([N+](=O)[O-])o1)OCC1OC(n2ccc(N)nc2=O)C(O)C1O (centres undefined) ... 43.9 µM
COc1ccc2[nH]c(C(=O)N3CCN(C(=O)OCc4ccc5c(Cl)cc(Cl)c(O)c5n4)CC3)cc2c1 ... 1.05 µM
Cc1cc(=O)[nH]c(NNC(C#N)c2cccc([N+](=O)[O-])c2)n1 (centres undefined) ... > 100 µM
CC(=O)CC1(CBr)Nc2ccc([N+](=O)[O-])cc2NC1=O (centres undefined) ... > 100 µM
C=C(C)C1CC(=O)C(C)=C(O)C1 (centres undefined) ... > 100 µM
CC(=O)n1[nH]c(=O)n(-c2ccc(Cl)cc2)c1=O ... > 100 µM
CCOC(=O)c1c(-c2ccc(OC)cc2)ccn1C ... > 10 µM
CSc1nc(Nc2cccc(NC(=O)CCl)c2)c(C#N)c(-c2cccc([N+](=O)[O-])c2)n1 ... > 100 µM

Task: Looking for the measured TGI of CN1CCCC2[C@@H]3CCC4c5nonc5CC[C@]4(C)C3CC[C@@]21C (some centres undefined) , can you help?
Result: > 100 µM

Task: Looking for the measured TGI of CC1OC(OC2C(O[C@H]3CC[C@@]4(C)C(=CC[C@H]5[C@@H]6C[C@@H]7O[C@]8(CC[C@@H](C)CO8)[C@@H](C)[C@@H]7[C@@]6(C)CC[C@@H]54)C3)OC(CO)C(O)C2OC2OC(CO)C(O)C(O)C2O)C(O)C(O)C1O (some centres undefined) , can you help?
Result: > 100 µM

Task: Looking for the measured TGI of `O=C(CC1=Nc2nnc(CCCCCCCc3nnc4n3C(=O)C(CC(=O)c3ccc5ccccc5c3)=N4)n2C1=O)c1ccc2ccccc2c1` , can you help?
Result: > 100 µM

Task: Looking for the measured TGI of `C/C(=N/NC(=S)Nc1ccccc1)c1nc2ccc(Cl)cc2[nH]1` , can you help?
Result: 1.23 µM

Task: Looking for the measured TGI of COc1cccc2c1C(=O)c1c(O)c3c(c(O)c1C2=O)C[C@@](O)(C(C)=O)CC3OC1CC(OC2CC(N)C(O)C(C)O2)C(O)C(C)O1 (some centres undefined) , can you help?
Result: > 70 µM

Task: Looking for the measured TGI of N=C1CCCC1C(=S)SCCC(N)=O (centres undefined) , can you help?
Result: > 100 µM

Task: Looking for the measured TGI of `COc1ccc(CCNC(=O)Cc2ccccc2CO)cc1OC` , can you help?
Result: > 100 µM

Task: Looking for the measured TGI of `O=C1c2cc3c(cc2-c2c1c1cc(F)c(F)cc1c(=O)n2CCCn1ccnc1)OCO3` , can you help?
Result: 16.6 µM

###

Reported values of TGI for individual entries
Test system: OVCAR-4 ovarian
measurement-protocol: NCI tumour cell line growth inhibition, 48 h
Your answer should be a plain number; it is taken to be in µM.

COc1cc2c(/C=C3/C(=O)Nc4ccccc43)c(Cl)n(Cc3ccc(Cl)cc3)c2cc1C ... 18.6

Please examine the following record next.
Task: Looking for the measured TGI of `CCCC(=O)O[C@]1(C)CC[C@@H]2[C@H]3[C@@H]1[C@@H]1C[C@@](C)(O)[C@H](OC)CC[C@](C)(OC(=O)[C@@H]2C)[C@H]3O1` , can you help?
Result: 50

###

Test system: U251 CNS
measurement-protocol: NCI tumour cell line growth inhibition, 48 h
measure: TGI

COc1ccc(-c2ccc(OC)c(OC)c2OC)cc1 ... > 100 µM
NC(N)=N/N=C\c1ccc(OCc2ccccc2)cc1 ... 3.17 µM
Oc1ccc(C(O)C2CCCCN2)cc1O (stereo unspecified) ... > 100 µM

Task: Write down the reported TGI of C=CCC(O[Si](C)(C)C(C)(C)C)c1cc(O[Si](C)(C)C(C)(C)C)ccc1OC (stereo unspecified) , test system: U251 CNS.
Result: > 100 µM

Task: Write down the reported TGI of Cc1cn(CCCCCCOC(=O)NC(CCCNC(N)=O)C(=O)O)c(=O)[nH]c1=O (stereo unspecified) , test system: U251 CNS.
Result: > 100 µM

Task: Write down the reported TGI of Cc1cccc(C2NC(=O)c3ccccc3N2)c1 (stereo unspecified) , test system: U251 CNS.
Result: > 31.6 µM

###

Test system: CCRF-CEM leukemia
measurement-protocol: NCI tumour cell line growth inhibition, 48 h
Reported values of TGI for individual entries

// known answers, use as guide
COc1cccc2c1C(=O)c1c(O)c3c(c(O)c1C2=O)C[C@@](O)(C(C)=O)CC3OC1CC(OC2CC(N)C(O)C(C)O2)C(O)C(C)O1 (some centres not stated) ... 44 µM
NC(=O)CCC(N=c1c2ccccc2n(O)c2ccccc12)C(=O)O (configuration not stated) ... > 100 µM
CCOC(=O)c1cc(-c2ccc(OC)cc2)c([N+](=O)[O-])[nH]1 ... > 10 µM
O=C1c2ccccc2-c2nc3ccncc3n21 ... > 100 µM
C[n+]1cccc2ccc3cccnc3c21 ... > 100 µM

Task: Looking for the measured TGI of `COc1cccc(-c2cc(C(=O)Nc3ccc(/C=C/c4ccc(OC5CCN(C)CC5)cc4)cc3)ccc2OC)c1` , can you help?
Result: 5.14 µM

Task: Looking for the measured TGI of `COc1ccc(CCNC(=O)Cc2ccccc2CO)cc1OC` , can you help?
Result: > 100 µM

Task: Looking for the measured TGI of `COc1cc(CCNC2=CC(=O)c3nc[nH]c3C2=O)ccc1O` , can you help?
Result: > 100 µM

Task: Looking for the measured TGI of NCCO/C=C/C(N)C(=O)O (configuration not stated) , can you help?
Result: > 100 µM

Task: Looking for the measured TGI of COc1ccccc1NC(=O)C(=O)C(C(=O)c1ccccc1F)C1OC(=O)c2ccccc21 (configuration not stated) , can you help?
Result: 67 µM

Task: Looking for the measured TGI of `c1ccc2c(c1)[nH]c1c2nc2ccccn21` , can you help?
Result: > 100 µM

Task: Looking for the measured TGI of `COc1ccc(-c2ccc(C(=O)C=P(c3ccccc3)(c3ccccc3)c3ccccc3)cc2)cc1` , can you help?
Result: > 100 µM

Task: Looking for the measured TGI of COC(=O)[C@]1(c2cc3ccccc3n2S(=O)(=O)c2ccccc2)CC2CN(C(=O)OCc3ccccc3)C1C1OC(C)(C)OC21 (some centres not stated) , can you help?
Result: > 100 µM

Task: Looking for the measured TGI of `CN(C)C(=S)/N=c1\ss/c(=N\C(=S)N(C)C)n1-c1cccc(Cl)c1` , can you help?
Result: > 100 µM

Task: Looking for the measured TGI of `c1cnc2c(c1)-n1cccc1C1(CCCCC1)NN2` , can you help?
Result: > 100 µM

Task: Looking for the measured TGI of Nc1[nH]c(=O)nc2c1ncn2C1OC(CO)C(O)C1O (configuration not stated) , can you help?
Result: 75.3 µM

Task: Looking for the measured TGI of `COc1ccc2c(c1)C(=O)c1c-2c(OCCCN(C)C)nc2cc(Br)ccc12` , can you help?
Result: 23.8 µM

Task: Looking for the measured TGI of O=C(c1ccccc1)C1N=NN(Cc2ccccc2[N+](=O)[O-])C1C(=O)c1ccccc1 (configuration not stated) , can you help?
Result: > 100 µM

Task: Looking for the measured TGI of `COc1cc2c(/C=C3\C(=O)Nc4ccccc43)c[nH]c2cc1C` , can you help?
Result: 0.0734 µM

Task: Looking for the measured TGI of FC1=C2C3CCC(C3)C2C1(F)F (configuration not stated) , can you help?
Result: > 100 µM

Task: Looking for the measured TGI of `COc1ccc(-n2cc(-c3ccc(OC)c(OC)c3)[nH]c2=O)cc1` , can you help?
Result: > 100 µM

Task: Looking for the measured TGI of `Cc1cccc(C)c1NC(=O)C(=O)Cc1nc2ccccc2s1` , can you help?
Result: > 100 µM

Task: Looking for the measured TGI of `C[C@@]1(F)[C@H](O)[C@@H](CO)O[C@H]1n1ccc(=O)[nH]c1=O` , can you help?
Result: > 100 µM

Task: Looking for the measured TGI of N#Cc1ccccc1NC(=O)C(=O)C(C(=O)c1ccccc1F)C1OC(=O)c2ccccc21 (configuration not stated) , can you help?
Result: 37.9 µM
